target: hDM2 (In-house, 41 kD) (human, UniProt Q00987 1-125); assay: FP competition
Sequence (Q00987 1-125): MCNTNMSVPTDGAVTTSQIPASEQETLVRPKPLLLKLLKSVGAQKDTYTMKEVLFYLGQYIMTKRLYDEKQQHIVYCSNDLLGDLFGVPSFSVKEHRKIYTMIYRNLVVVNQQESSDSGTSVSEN
Output 1 (yes) for records whose IC50 is lower than 100 nM, 0 (no) for records at or above 100 nM.

{"binder": "LTFAEYWAQLAA (not fully specified) [SP-671]", "cat": "1 (yes)"}
{"binder": "LTFAAYWSQLAA (not fully specified) [SP-698]", "cat": "1 (yes)"}
{"binder": "LTFAVYWAQLAA (not fully specified) [SP-623]", "cat": "1 (yes)"}
{"binder": "LTFAAYWAALAS (not fully specified) [SP-673]", "cat": "0 (no)"}
{"binder": "ITFAFYWAQLAS (not fully specified) [SP-684]", "cat": "0 (no)"}
{"binder": "LTFAAYWVQLAS (not fully specified) [SP-681]", "cat": "0 (no)"}
